Target: T1, pooled human transferrin (Sigma), biotinylated (human, UniProt P02787 20-698, biotinylated at amines with NHS-LC-LC-Biotin)
T1 construct: Captured on Neutravidin on a CM5 chip (Biacore A-100)
T1 sequence (P02787 20-698 limits assumed): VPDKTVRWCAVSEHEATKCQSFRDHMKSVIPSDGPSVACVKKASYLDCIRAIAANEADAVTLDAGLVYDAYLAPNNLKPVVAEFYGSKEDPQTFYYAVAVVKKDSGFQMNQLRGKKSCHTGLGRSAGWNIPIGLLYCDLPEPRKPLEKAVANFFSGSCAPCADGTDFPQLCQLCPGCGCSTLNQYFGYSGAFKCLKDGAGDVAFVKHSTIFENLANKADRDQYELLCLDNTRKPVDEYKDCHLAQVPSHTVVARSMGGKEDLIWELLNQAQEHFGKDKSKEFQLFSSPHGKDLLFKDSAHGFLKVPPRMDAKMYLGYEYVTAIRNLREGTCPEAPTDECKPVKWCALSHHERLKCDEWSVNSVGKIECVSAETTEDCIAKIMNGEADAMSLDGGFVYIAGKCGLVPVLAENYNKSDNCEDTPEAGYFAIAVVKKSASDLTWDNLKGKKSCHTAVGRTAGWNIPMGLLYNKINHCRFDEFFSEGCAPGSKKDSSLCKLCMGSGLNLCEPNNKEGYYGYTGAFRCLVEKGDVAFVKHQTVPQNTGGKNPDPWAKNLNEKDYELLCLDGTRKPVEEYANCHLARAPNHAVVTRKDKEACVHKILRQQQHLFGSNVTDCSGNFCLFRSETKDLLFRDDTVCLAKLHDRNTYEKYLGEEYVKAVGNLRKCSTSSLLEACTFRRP
Experiment: SPR Biacore A-100, purified peptide at several concentrations
outcome measure: pKd
Answers are plain numbers, as −log10 of the molar value.

### Prompt Fill in the blank: the reported pKd of ARDLLIQKNSGQDVDHRGSC (Screened unpurified, then resynthesised and HPLC purified for the KD) [TRF101] is ____.
### Response 4.10
